# tgt: Diacylglycerol lipase-alpha (Homo sapiens, UniProt Q9Y4D2)
# protocol-description: Inhibition of full-length human DAGLalpha expressed in HEK293T cell membranes using para-nitrophenylbutyrate by colorimetric assay
assay-readout: IC50

Recorded results for 8 molecules are shown here.
* O=C(CCCCCCc1ccccc1)c1nnn(-c2ccccn2)n1 | > 10 µM
* O=C(CCCCCCc1ccccc1)c1nnc(-c2cccs2)s1 | > 10 µM
* O=C(CCCCCCc1ccccc1)c1nnc(-c2ccccn2)o1 | > 10 µM
* O=C(CCCCCCc1ccccc1)c1nnc(-c2ccco2)[nH]1 | > 10 µM
* O=C(CCCCCc1ccccc1)c1nc2ccccc2[nH]1 | 12 µM
* O=C(CCCCCCc1ccccc1)c1ccc(-c2ccco2)nn1 | > 10 µM
* CC(=O)c1cnc(C(=O)CCCCCCc2ccccc2)o1 | > 10 µM
* O=C(CCCCCCc1ccccc1)c1nc(-c2ccccn2)co1 | > 10 µM

Let's switch to this molecule now.
Which value of IC50 has been reported for COC(=O)c1coc(C(=O)CCCCCCc2ccccc2)n1 in the records?
0.631 µM

###

# tgt: Diacylglycerol lipase-alpha (Homo sapiens)
# Sequence (Q9Y4D2 whole entry): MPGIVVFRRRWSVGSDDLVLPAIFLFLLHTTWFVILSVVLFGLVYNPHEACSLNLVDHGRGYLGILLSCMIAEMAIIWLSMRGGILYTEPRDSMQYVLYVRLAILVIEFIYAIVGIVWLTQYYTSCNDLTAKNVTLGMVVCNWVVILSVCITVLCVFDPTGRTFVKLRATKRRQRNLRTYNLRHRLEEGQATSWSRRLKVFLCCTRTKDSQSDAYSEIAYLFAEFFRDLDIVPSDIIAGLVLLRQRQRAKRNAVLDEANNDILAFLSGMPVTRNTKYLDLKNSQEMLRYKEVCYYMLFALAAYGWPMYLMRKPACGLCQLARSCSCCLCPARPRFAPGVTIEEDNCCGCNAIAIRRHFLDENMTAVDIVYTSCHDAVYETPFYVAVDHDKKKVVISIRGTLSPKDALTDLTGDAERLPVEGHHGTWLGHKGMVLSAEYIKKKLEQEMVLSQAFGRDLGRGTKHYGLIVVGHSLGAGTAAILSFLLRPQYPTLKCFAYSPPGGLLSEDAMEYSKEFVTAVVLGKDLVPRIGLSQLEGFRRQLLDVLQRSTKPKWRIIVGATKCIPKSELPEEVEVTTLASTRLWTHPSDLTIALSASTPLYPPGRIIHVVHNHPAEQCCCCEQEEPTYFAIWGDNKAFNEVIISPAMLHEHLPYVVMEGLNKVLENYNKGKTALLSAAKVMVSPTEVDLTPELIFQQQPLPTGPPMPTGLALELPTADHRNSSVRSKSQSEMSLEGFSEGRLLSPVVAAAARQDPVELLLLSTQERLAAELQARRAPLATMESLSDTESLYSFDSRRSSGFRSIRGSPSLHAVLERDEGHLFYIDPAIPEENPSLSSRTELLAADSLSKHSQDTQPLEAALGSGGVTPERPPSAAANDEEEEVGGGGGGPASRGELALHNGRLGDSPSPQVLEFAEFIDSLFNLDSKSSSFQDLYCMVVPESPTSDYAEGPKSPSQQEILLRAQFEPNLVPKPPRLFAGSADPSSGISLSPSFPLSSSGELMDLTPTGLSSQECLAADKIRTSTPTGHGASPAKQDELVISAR
# protocol-description: Inhibition of full-length human DAGLalpha expressed in HEK293T cell membranes using para-nitrophenylbutyrate by colorimetric assay
assay-readout: IC50 (µM)

* CCCCCCCCCCCCCCCC(=O)c1nc2ncccc2o1 | 0.0646

(P) CCCCCCCCCCCC(=O)c1nc2ncccc2o1
(Q) O=C(CCCCCCCc1ccccc1)c1nc2ncccc2o1
(R) O=C(CCCCCCc1ccccc1)c1nc2ncccc2o1
(S) O=C(CCCCCCc1ccccc1)c1nc(-c2ccccn2)no1
Form: Sort by [IC50] Order [ ascending ] I'd appreciate it if you listed the labels in the requested order.
P, Q, R, S
(P: 0.0309 µM, Q: 0.0468 µM, R: 0.525 µM, S: 2.75 µM)

(a) CCCCCCCC/C=C\CCCCCCCC(=O)c1nc2ncccc2o1
(b) C=CCCCCCCCC(=O)c1nc2ncccc2o1
Field: lower IC50 | Options: a / b Answer = label.
a
(a: 0.0263 µM, b: 0.55 µM)

###

# tgt: Diacylglycerol lipase-alpha (Homo sapiens)
# Sequence (Q9Y4D2 whole entry): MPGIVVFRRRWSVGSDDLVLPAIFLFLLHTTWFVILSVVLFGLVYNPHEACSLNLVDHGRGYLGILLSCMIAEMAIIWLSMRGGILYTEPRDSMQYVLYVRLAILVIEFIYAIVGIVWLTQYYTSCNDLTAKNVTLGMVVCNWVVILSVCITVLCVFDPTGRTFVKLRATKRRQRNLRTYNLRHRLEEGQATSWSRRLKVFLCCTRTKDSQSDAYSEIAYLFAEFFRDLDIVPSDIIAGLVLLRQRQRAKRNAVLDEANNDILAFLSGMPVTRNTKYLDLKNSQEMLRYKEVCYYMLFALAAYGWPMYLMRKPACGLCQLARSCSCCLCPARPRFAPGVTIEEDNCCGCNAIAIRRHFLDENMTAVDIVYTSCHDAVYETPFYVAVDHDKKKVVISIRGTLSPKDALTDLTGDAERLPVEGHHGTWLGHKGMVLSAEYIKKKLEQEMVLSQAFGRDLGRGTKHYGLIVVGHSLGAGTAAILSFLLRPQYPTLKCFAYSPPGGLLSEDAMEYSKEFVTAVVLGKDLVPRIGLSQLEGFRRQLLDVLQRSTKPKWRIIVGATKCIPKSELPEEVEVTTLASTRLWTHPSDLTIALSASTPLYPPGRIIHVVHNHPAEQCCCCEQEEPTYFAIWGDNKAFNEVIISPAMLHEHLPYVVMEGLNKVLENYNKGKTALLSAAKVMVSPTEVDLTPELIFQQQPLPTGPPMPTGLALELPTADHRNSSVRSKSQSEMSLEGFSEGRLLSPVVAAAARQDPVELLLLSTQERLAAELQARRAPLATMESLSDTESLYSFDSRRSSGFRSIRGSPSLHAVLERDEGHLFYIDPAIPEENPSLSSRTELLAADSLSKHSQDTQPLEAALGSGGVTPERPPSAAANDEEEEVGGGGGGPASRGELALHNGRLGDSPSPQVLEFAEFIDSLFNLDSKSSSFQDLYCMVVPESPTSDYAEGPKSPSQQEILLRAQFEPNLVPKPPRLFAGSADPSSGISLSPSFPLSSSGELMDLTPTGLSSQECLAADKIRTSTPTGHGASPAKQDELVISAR
# protocol-description: Inhibition of full-length human DAGLalpha expressed in HEK293T cell membranes using para-nitrophenylbutyrate by colorimetric assay
pIC50: −log10 of the molar value.
assay-readout: pIC50

Recorded results for 5 compounds are shown here.
- O=C(CCCCCCCCc1ccccc1)c1nc2ncccc2o1: 8.44
- O=C(CCCCCCc1ccccc1)c1nc(C(=O)C(F)(F)F)co1: 6.91
- O=C(CCCCCCc1ccccc1)c1nc(-c2cccs2)no1: 5.71
- O=C(CCCCCCc1ccccc1)c1nnco1: 5.57
- O=C(CCCCCc1ccccc1)c1nc2ccc(F)cc2o1: 6.15

(I) O=C(CCCCCc1ccccc1)c1nc2c(F)cccc2o1
(II) O=C(CCCCCc1ccccc1)c1nc2cnccc2o1
(III) CCCCCCCC(=O)c1nc2ncccc2o1
(IV) CCCCCCCCCCCCCC(=O)c1nc2ncccc2o1
# rank_down: sort by pIC50, max first I'd appreciate it if you listed the labels in the requested order.
IV, I, II, III

(P) CC(C)(C)C(=O)c1coc(C(=O)CCCCCCc2ccccc2)n1
(Q) CN(C)C(=O)c1coc(C(=O)CCCCCCc2ccccc2)n1
(R) O=C(CCCCCCc1ccccc1)c1nc(-c2ccccc2)co1
# rank_down: sort by pIC50, max first I'd appreciate it if you listed the labels in the requested order.
P, Q, R
(P: 6.32, Q: 5.47, R: 5.06)

###

# tgt: Diacylglycerol lipase-alpha (Homo sapiens)
# protocol-description: Inhibition of full-length human DAGLalpha expressed in HEK293T cell membranes using para-nitrophenylbutyrate by colorimetric assay
pIC50: −log10 of the molar value.
assay-readout: pIC50

Recorded results for 4 molecules are shown here.
• O=C(CCCCCc1ccccc1)c1nc2ccc([N+](=O)[O-])cc2o1 = 7.06
• O=C(CCCCCCc1ccccc1)c1nc(I)co1 = 5.63
• CCCCCCCC/C=C\CCCCCCCC(=O)c1nc2ccccc2[nH]1 = 6.71
• N#Cc1coc(C(=O)CCCCCCc2ccccc2)n1 = 6.24

(I) O=C(CCCCCc1ccccc1)c1nc2cc([N+](=O)[O-])ccc2o1
(II) CCCCC/C=C\C/C=C\C/C=C\C/C=C\CCCC(=O)c1nc2ncccc2o1
(III) CC(=O)c1coc(C(=O)CCCCCCc2ccccc2)n1
(IV) CS(=O)(=O)c1coc(C(=O)CCCCCCc2ccccc2)n1
Form: Sort by [pIC50] Order [ ascending ] I'd appreciate it if you listed the labels in the requested order.
II, I, IV, III
(II: 5.62, I: 6.05, IV: 6.41, III: 6.91)
